Provenance of the data: ChEMBL document CHEMBL6153133

- method: Half-life in male Sprague-Dawley rat at 10 mg/kg, po by LC-MS/MS analysis
- Assay type: ADME, organism-based
- particulars: in vivo

# smiles, units, half-life
data = [
    ("Cl.Cl.Oc1cc(NCCCCN2CCOCC2)ccc1Oc1c(F)c(F)c(C(F)(F)F)c(F)c1F", "min", 222),
    ("COc1cc(N)ccc1Oc1c(F)c(F)c(C(F)(F)F)c(F)c1F.Cl", "min", 384),
    ("Cl.Cl.Oc1cc(NCCCCCN2CCOCC2)ccc1Oc1c(F)c(F)c(C(F)(F)F)c(F)c1F", "min", 426),
    ("Cl.Nc1ccc(Oc2c(F)c(F)c(C(F)(F)F)c(F)c2F)c(O)c1", "min", 234),
]
